Target: EGFR kinase (Homo sapiens)
Sequence (P00533 25-1210): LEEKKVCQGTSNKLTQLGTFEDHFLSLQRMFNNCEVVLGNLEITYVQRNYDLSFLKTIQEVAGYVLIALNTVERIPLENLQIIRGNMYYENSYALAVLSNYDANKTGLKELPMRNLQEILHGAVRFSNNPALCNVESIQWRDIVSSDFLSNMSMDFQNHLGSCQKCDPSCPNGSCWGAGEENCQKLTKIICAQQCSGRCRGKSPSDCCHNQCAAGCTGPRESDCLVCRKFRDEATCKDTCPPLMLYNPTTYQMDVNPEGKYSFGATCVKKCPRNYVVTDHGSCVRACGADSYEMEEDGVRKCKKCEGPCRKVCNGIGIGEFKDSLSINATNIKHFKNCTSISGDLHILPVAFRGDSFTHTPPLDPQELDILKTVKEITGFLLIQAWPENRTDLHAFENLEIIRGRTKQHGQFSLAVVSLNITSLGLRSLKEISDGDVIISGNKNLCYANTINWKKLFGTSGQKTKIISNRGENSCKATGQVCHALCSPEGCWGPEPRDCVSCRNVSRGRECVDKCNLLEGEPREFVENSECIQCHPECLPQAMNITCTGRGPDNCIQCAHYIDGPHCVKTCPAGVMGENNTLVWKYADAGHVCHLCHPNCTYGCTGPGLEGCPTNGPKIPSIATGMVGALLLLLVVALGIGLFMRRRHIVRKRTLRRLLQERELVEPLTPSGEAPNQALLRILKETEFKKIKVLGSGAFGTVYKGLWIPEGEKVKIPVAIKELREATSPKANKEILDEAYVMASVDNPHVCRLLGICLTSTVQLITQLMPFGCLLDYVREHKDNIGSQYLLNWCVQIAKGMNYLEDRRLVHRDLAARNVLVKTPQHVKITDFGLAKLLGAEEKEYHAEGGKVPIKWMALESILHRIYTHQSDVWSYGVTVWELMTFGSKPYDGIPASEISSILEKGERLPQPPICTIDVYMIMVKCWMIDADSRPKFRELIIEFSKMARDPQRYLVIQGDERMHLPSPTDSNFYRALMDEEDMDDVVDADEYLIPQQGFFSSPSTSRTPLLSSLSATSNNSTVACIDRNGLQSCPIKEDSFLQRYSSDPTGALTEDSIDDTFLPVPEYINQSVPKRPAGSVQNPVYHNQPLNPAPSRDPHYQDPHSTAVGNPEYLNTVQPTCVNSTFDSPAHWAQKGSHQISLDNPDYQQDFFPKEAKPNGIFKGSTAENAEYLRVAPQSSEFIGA
Assay: ELISA-based EGFR kinase inhibition assay
Conditions: sample at 1.25uM; duplicate wells; standards in ng/ml; cont 134.9
Endpoint Label: Conc. (Average), ELISA read-out

CCOC(=O)C1=C(C)OC(N)=C(C#N)C1c1ccc(OC2CCCC2)cc1 (stereo not shown) : 67.92
Cc1ccc(C2=NN(c3ccccc3)C(c3ccc(OC4CCCC4)cc3)C2)cc1 (stereo not shown) : 71.11

P: CN1CCC(=O)C(=Cc2ccc(OC3CCCC3)cc2)C1
Q: CCN1CCC(=O)C(=Cc2ccc(OC3CCCC3)cc2)C1
Could you kindly indicate whether P or Q has the higher Conc. (Average), ELISA read-out value? Reply with the label of the item you choose.
P

---

System: HepG2 cells
Assay: MTT antitumour assay, HepG2
Format: cell-based
Settings: human hepato-cellular carcinoma cell line, mean ± SD, n = 3
Endpoint Label: IC50 (µM)

O=C(O)c1cc(C=Cc2ccc(OC3CCCC3)cc2)nc2ccc(Br)cc12 [12a] : 85.4
O=C(O)c1cc(C=Cc2ccc(OC3CCCC3)cc2)nc2ccc(F)cc12 [12b] : 30.8
Cc1ccc(-c2cc(-c3ccc(OC4CCCC4)cc3)c(C#N)c(=O)[nH]2)cc1 : 80.9
Cc1ccc(C2=NOC(c3ccc(OC4CCCC4)cc3)C2)cc1 (stereo not shown) : 62.3

1: CC(=O)C=Cc1ccc(OC2CCCC2)cc1
2: Cc1ccc(-c2cc(-c3ccc(OC4CCCC4)cc3)c(C#N)c(N)n2)cc1
Could you kindly indicate whether 1 or 2 has the higher IC50 value? Reply with the label of the item you choose.
2
